# SUBJECT_OF_TEST: mouse ATB^0,+ (Mus musculus, UniProt Q9JMA9)
# Sequence (Q9JMA9 whole entry): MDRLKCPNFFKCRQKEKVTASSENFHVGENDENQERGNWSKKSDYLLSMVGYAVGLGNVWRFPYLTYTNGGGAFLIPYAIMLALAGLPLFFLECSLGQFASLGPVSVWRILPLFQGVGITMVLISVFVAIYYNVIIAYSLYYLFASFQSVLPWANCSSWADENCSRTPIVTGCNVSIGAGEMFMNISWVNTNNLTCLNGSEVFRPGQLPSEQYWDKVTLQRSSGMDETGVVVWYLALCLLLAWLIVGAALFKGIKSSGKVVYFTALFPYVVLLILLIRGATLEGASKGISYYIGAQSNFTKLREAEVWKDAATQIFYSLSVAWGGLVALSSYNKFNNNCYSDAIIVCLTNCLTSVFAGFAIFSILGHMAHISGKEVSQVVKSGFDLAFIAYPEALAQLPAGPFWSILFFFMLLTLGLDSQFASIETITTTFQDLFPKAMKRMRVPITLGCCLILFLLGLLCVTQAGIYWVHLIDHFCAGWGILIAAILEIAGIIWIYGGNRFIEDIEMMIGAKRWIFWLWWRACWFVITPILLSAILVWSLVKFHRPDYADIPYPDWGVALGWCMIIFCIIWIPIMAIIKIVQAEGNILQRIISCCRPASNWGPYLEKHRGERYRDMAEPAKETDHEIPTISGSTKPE
MEASURE: Ki (µM)
Only the number, expressed in µM, is required.

// query I have this compound here, `N[C@@H](Cc1ccccc1)C(=O)O` , and I need its recorded Ki.
// result 68.6

====

# SUBJECT_OF_TEST: mouse ATB^0,+ (Mus musculus, UniProt Q9JMA9)
# TEST_PROTOCOL: Inhibition of ATB0,+-specific [3H]-L-NNA transport by amino acids in HRPE cells
# Type: cell-based
# MEASUREMENT_SETUP: amino acids 5 mM; [3H]-L-NNA 10 μM
MEASURE: inhibition of ATB^0,+-specific L-NNA transport

{"SMILES_CODE": "N[C@@H](CO)C(=O)O", "READING": "inhibition"}
{"SMILES_CODE": "NCC(=O)O", "READING": "inhibition"}
{"SMILES_CODE": "N=C(N)NCCC[C@H](N)C(=O)O", "READING": "inhibition"}

FYI, the data here is from patent US20040142317A1.
